target: IgE on basophils of ragweed allergic patients; test: cell-based or functional assay
measurement label: HR40 (concentration required to induce 40% histamine release), patient two (µg/mL)
Respond numerically; units are µg/mL and should not be typed.

INSERT INTO measurements (binder, units_label, endpoint_value) VALUES
  ('AIC-L (covalent conjugate of Amb a 1 and ISS-containing polynucleotide SEQ ID NO:1, low extent of conjugation) (protein, ragweed, UniProt P27759 26-396, looked up, average of 2-3 oligonucleotides (5'' thio ISS oligonucleotide, SEQ ID NO:1) per Amb a 1 molecule, linked through the heterobifunctional linker sSMCC; Amb a 1 blocked with N-ethyl maleimide before activation) AEDLQEILPVNETRRLTTSGAYNIIDGCWRGKADWAENRKALADCAQGFGKGTVGGKDGDIYTVTSELDDDVANPKEGTLRFGAAQNRPLWIIFERDMVIRLDKEMVVNSDKTIDGRGAKVEIINAGFTLNGVKNVIIHNINMHDVKVNPGGLIKSNDGPAAPRAGSDGDAISISGSSQIWIDHCSLSKSVDGLVDAKLGTTRLTVSNSLFTQHQFVLLFGAGDENIEDRGMLATVAFNTFTDNVDQRMPRCRHGFFQVVNNNYDKWGSYAIGGSASPTILSQGNRFCAPDERSKKNVLGRHGEAAAESMKWNWRTNKDVLENGAIFVASGVDPVLTPEQSAGMIPAEPGESALSLTSSAGVLSCQPGAPC', 'µg/mL', 0.018),
  ('ragweed allergen Amb a 1 (protein, UniProt P27759 26-396, looked up) AEDLQEILPVNETRRLTTSGAYNIIDGCWRGKADWAENRKALADCAQGFGKGTVGGKDGDIYTVTSELDDDVANPKEGTLRFGAAQNRPLWIIFERDMVIRLDKEMVVNSDKTIDGRGAKVEIINAGFTLNGVKNVIIHNINMHDVKVNPGGLIKSNDGPAAPRAGSDGDAISISGSSQIWIDHCSLSKSVDGLVDAKLGTTRLTVSNSLFTQHQFVLLFGAGDENIEDRGMLATVAFNTFTDNVDQRMPRCRHGFFQVVNNNYDKWGSYAIGGSASPTILSQGNRFCAPDERSKKNVLGRHGEAAAESMKWNWRTNKDVLENGAIFVASGVDPVLTPEQSAGMIPAEPGESALSLTSSAGVLSCQPGAPC', 'µg/mL', 0.0002);

[in] Quick check: HR40 (concentration required to induce 40% histamine release), patient two of AIC-M (covalent conjugate of Amb a 1 and ISS-containing polynucleotide SEQ ID NO:1, medium extent of conjugation) (protein, ragweed, UniProt P27759 26-396, looked up, average of 3.5 to 4.5 oligonucleotides (5' thio ISS oligonucleotide, SEQ ID NO:1) per Amb a 1 molecule, linked through the heterobifunctional linker sSMCC; Amb a 1 blocked with N-ethyl maleimide before activation) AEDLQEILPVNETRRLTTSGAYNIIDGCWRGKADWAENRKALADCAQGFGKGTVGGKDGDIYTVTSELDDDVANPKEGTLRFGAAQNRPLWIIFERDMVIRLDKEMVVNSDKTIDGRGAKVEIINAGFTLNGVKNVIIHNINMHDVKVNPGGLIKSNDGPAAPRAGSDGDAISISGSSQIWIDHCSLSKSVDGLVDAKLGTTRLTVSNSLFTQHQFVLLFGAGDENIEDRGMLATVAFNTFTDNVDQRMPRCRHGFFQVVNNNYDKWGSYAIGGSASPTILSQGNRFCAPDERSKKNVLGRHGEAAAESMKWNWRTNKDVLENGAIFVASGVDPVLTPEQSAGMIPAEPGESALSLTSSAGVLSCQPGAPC ?
[out] 0.028

Where do the numbers come from? From patent US7223398.
